The origin of these recorded values is paper PMC5870190.

system: hSAEC1-KT normal human small airway epithelial cells; assay: MTT assay, hSAEC1-KT cells; type: cell-based; settings: 24 h constant exposure
pIC50: −log10 of the molar value.
endpointName: pIC50

compound	endpointName	valueMeasured
N.N.[Cl][Pt][Cl] [Cisplatin, cisplatin]	pIC50	4.67

###

system: FLO-1 human oesophageal adenocarcinoma; experiment: MTT assay, FLO-1 cells; format: cell-based; conditions: Homo sapiens, FLO-1, FLO1, 24 h constant exposure
endpointName: IC50 (µM)

chemicalString	valueMeasured
c1ccc2nc3c4cccnc4c4ncccc4c3nc2c1	7.5

###

test system: FLO-1 human oesophageal adenocarcinoma; test: MTT assay, FLO-1 cells; type: cell-based; settings: FLO1, 72 h constant exposure
pIC50: −log10 of the molar value.

molecule	studyTarget	pIC50
N.N.[Cl][Pt][Cl] [Cisplatin, cisplatin]	FLO-1 human oesophageal adenocarcinoma	5.33

###

tested on: FLO-1 human oesophageal adenocarcinoma; assay: MTT assay, FLO-1 cells; assay type: cell-based; conditions: FLO1, 24 h constant exposure
pIC50: −log10 of the molar value.
endpointName: pIC50

compound	endpointName	valueMeasured
N.N.[Cl][Pt][Cl] [Cisplatin, cisplatin]	pIC50	4.58
